Give measured GI50 for each item. Keep answers brief.
# Test system: SF-295
# Measurement notes: NCI tumour cell line growth inhibition, 48 h
Calls of active or inactive are those of the source. Cut-off read from the data, not from the text of the source: active = GI50 up to about 1.1 µM and inactive = higher. Numbered stars: 1 amine (or outer) side, 2 acyl side, 3 side chain; on linkers, the order of the positions; unused ones are H or OH. Bridge positions count the residues as written; N and C are the ends. Square brackets hold non-standard residues; d marks the D form. Peptide text beside a SMILES is read from it. * marks the point of attachment. ξ: configuration not given here. X33 = O=C(C(CCCCNO[*:3])N[*:1])[*:2]; 2Nal = N[CH](Cc1ccc2ccccc2c1)C(=O)O; Fmoc = O=C(OCC1c2ccccc2-c2ccccc21)*; ξW = NC(Cc1c[nH]c2ccccc12)C(=O)O; ξP = O=C(O)C1CCCN1

IN: Please look up its GI50: NC(=O)CNC(=O)C1CCCN1C(=O)C1CCCCNOC(=O)CC[C@@H](NC(=O)OCC2c3ccccc3-c3ccccc32)C(=O)NC(Cc2c[nH]c3ccccc23)C(=O)N1 (stereo partly drawn) (Fmoc-[dE][ξW][X33][ξP]G-NH2; ester 1-3)
OUT: > 100 µM (inactive)

IN: Try `COc1ccccc1/N=N/c1c(-c2ccccc2)nn(C(=O)CC(=O)Nc2cccc(C)c2)c1-c1ccccc1` next.
OUT: 28.2 µM (inactive)

IN: Would you kindly repeat that for `CC1=NN(c2cccc(Cl)c2)C(=N/c2nc3ccccc3s2)/C1=C\C=C\c1ccccc1` ?
OUT: 33.5 µM (inactive)

IN: Now consider `COC(=O)C1=C(C(=O)OC)SC2(S1)C1=C(CCCC1)SC(C(=O)OC)=C2C(=O)OC` .
OUT: 14.6 µM (inactive)

IN: Then this molecule: C=CCNC(=O)CN(CC(=O)O)C1CCCCC1N(CC(=O)O)CC(=O)O (stereo not drawn)
OUT: > 100 µM (inactive)

IN: Same question for CC(C)C(NC(=O)C(CCCCN)NC(=O)C(Cc1c[nH]c2ccccc12)NC(=O)C(Cc1ccc(O)cc1)NC(=O)C(CS)NC(=O)C(N)Cc1ccc2ccccc2c1)C(=O)NC(CS)C(=O)NC(C(N)=O)C(C)O (stereo not drawn) (H-[2Nal]CYWKVCT-NH2; configuration not given here) please.
OUT: > 12.5 µM (inactive)

IN: One more molecule: CC1(C)OC(=O)N(c2ccccc2)C12C=Cc1cccc([N+](=O)[O-])c1O2 (stereo not drawn)
OUT: 55.1 µM (inactive)

IN: Same read-out for `CCOC(=O)c1c2ccccc2n2c(=O)n(C)nnc12` ?
OUT: 40.1 µM (inactive)

IN: Okay, and CCCCC(O)(c1ccccc1)C(O)(c1ccccc1)c1c(F)c(F)c(F)c(F)c1F (stereo not drawn) ?
OUT: > 10 µM (inactive)

IN: // same read-out, input: `c1ccc2sc(SCSc3nc4ccccc4s3)nc2c1`
OUT: 43.3 µM (inactive)

IN: Let us now turn to `CCNC(=O)COc1ccc(Cl)cc1Cl`
OUT: > 100 µM (inactive)

IN: Please give the result for NC1=NN(c2ccccc2)C(=O)C1C(=O)CCC(=O)Nc1cccc(Cl)c1 (stereo not drawn) too.
OUT: > 100 µM (inactive)

IN: Would you kindly repeat that for CC(=O)NC1(NC(C)=O)C2CC(C1Cc1ccccc1)C(C)(C)C2C (stereo not drawn) ?
OUT: > 100 µM (inactive)

IN: Check OCC(O)C(OC1OC(CO)C(O)C(O)C1O)c1nn(-c2ccc(F)cc2)c2nc3cc(Cl)c(Cl)cc3cc12 (stereo not drawn) too.
OUT: > 100 µM (inactive)

IN: Can you check `CCOC(=O)/C(C#N)=C1/C(O)=C(C(=O)OC)C(C(=O)OC)=C1C(=O)OC.c1ccncc1` next?
OUT: > 100 µM (inactive)

IN: Please do the same for C=C(C)C1CC=C(C)C2(C1)OCC(C)(C)C(C)O2 (stereo not drawn) as well.
OUT: 19.5 µM (inactive)

IN: What do you have for `COc1cc(/C=C2\C[C@H]3[C@@H]4CCc5cc(OCCN6CCCC6)ccc5[C@H]4CC[C@]3(C)C2=O)cc(OC)c1OC` ?
OUT: 1.79 µM (inactive)

IN: Follow-up entry: `CC1(C)C=[N+]([O-])C(C)(C)N1O`
OUT: > 10 µM (inactive)

IN: // repeat for CCOC(=O)C1(C#N)C(c2ccccc2)CC(O)(c2ccc([N+](=O)[O-])cc2)C(C(=O)c2ccc([N+](=O)[O-])cc2)C1c1ccccc1 (stereo not drawn) and report
OUT: > 100 µM (inactive)

IN: Note, next up: CSc1nc2c(ncn2C2OC(CO)C(O)C(O)C2O)c(=O)[nH]1 (stereo not drawn)
OUT: 82.2 µM (inactive)

IN: Also need `CO/N=C(/C)c1cccc(Nc2nc3ccc(Cl)cc3c3[nH]c4ccccc4c23)c1` , thanks.
OUT: 4.08 µM (inactive)

IN: Now the molecule `Cc1ccc(C(=O)/C=C2\Nc3ccccc3N=C2NC23CC4CC(CC(C4)C2)C3)cc1`
OUT: > 10 µM (inactive)

IN: Try the molecule `O=C(C=P(c1ccccc1)(c1ccccc1)c1ccccc1)CC(=S)CC(=O)C=P(c1ccccc1)(c1ccccc1)c1ccccc1`
OUT: 3.16 µM (inactive)

IN: Moving on to `Cc1c(C)c2cc3c(=O)c(CCl)coc3c(C)c2oc1=O`
OUT: > 100 µM (inactive)

IN: Now this one: `Cc1cc(C)n(C(=CC(=O)C(Cl)Cl)n2nc(C)cc2C)n1`
OUT: 10.4 µM (inactive)

IN: Next: `Nn1c(SCC(=O)NCc2ccccc2)nc2ccccc2c1=O`
OUT: 48.6 µM (inactive)

IN: Do the same for N#CCC(=O)N/N=C\C(O)C(O)C(O)C(O)CO (stereo not drawn) please
OUT: > 100 µM (inactive)

IN: Entry to check: `Cc1cccc(/C=N/NC(=S)Nc2ccccc2)n1`
OUT: 6.3 µM (inactive)

IN: And for `COc1ccc2[nH]c3c4c(c5cc(C(C)(C)C)ccc5c3c2c1)C(=O)N(c1ccccc1)C4=O` ?
OUT: > 100 µM (inactive)

IN: Now try `COc1cc2c(c(OC)c1OC)-c1ccc(SC)c(=O)cc1[C@@H](NCc1ccc(C#N)cc1)CC2` .
OUT: 0.00369 µM (active)

IN: Now the molecule `O=C(NNC(=O)c1ccccc1O)c1ccccc1O`
OUT: 0.189 µM (active)

IN: Now give it for COc1ccc(C2c3c(n(C)c(=O)n(C)c3=O)OC(N(C)C)(N(C)C)C2(F)F)cc1 (stereo not drawn) too.
OUT: > 100 µM (inactive)

IN: C[N+]12CCCCC1C(COc1cccc3cccnc13)CCC2 (stereo not drawn) ?
OUT: > 100 µM (inactive)

IN: Same for COc1ccc(OC)c(C23CCCC(C2)N(C)CC3)c1 (stereo not drawn)
OUT: 38.5 µM (inactive)

IN: Then what about the molecule `O=c1[nH]c(=O)n([C@@H]2C[C@H](CO)[C@H](O)C2)cc1/C=C/Br` ?
OUT: > 100 µM (inactive)

IN: Okay, and `CCOC(=O)C1(CO)CSCCSC1` ?
OUT: > 100 µM (inactive)

IN: And what about the molecule CC1C2CC(C(S(=O)(=O)N3CCOCC3)/C2=N\O)C1(C)C (stereo not drawn) ?
OUT: > 100 µM (inactive)

IN: Can you check `COc1cc(C=O)ccc1O` next?
OUT: > 100 µM (inactive)

Values compiled from ChEMBL document CHEMBL1201862.
